Origin of the recorded values: paper PMC8443589

Listed next: entries and their corresponding recovery at 1 µM.
- test summary: Non-specific compound binding: drug recovery in blank liver MPS plates (no cells), LC-MS
- Assay type: in vitro ADME
- conditions: blank liver MPS platform/plates, vs input media, read-out: Drug recovery incubation in blank MPS platform (no cells)
quantity: recovery at 1 µM (%)

compound: CSc1ccc(C(=O)/C=C/c2cc(C)c(OC(C)(C)C(=O)O)c(C)c2)cc1 [Elafibranor]
reported result: 97

compound: CC[C@H]1[C@@H](O)[C@@H]2[C@H](CC[C@]3(C)[C@@H]([C@H](C)CCC(=O)O)CC[C@@H]23)[C@@]2(C)CC[C@@H](O)C[C@@H]12 [Obeticholic acid]
reported result: 110
